# Test system: RARb:RXRa (NR concentration 270 nM, RXRa partner concentration 90 nM)
# measurementNotes: PBM binding z-score (relative to random genomic background probes); higher = stronger binding; sequences stand for … in GC…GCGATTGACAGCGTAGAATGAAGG
Rule: Met for PBM binding z-score not less than 4, Not met for anything less.

Identify whether the reported PBM binding z-score of the following sequence is 4 or greater: `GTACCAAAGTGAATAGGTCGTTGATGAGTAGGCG`
Not met

Identify whether the reported PBM binding z-score of the following sequence is 4 or greater: `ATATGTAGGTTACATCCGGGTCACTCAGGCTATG`
Not met

Identify whether the reported PBM binding z-score of the following sequence is 4 or greater: `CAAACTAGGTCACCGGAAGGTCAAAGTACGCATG`
Met

Identify whether the reported PBM binding z-score of the following sequence is 4 or greater: `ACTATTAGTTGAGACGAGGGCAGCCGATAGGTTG`
Not met

Identify whether the reported PBM binding z-score of the following sequence is 4 or greater: `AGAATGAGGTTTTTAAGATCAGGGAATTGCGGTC`
Not met

Identify whether the reported PBM binding z-score of the following sequence is 4 or greater: `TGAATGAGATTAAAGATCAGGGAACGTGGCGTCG`
Not met

Identify whether the reported PBM binding z-score of the following sequence is 4 or greater: `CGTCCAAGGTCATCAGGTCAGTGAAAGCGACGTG`
Met

Identify whether the reported PBM binding z-score of the following sequence is 4 or greater: `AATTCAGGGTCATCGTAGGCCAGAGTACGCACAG`
Met

Identify whether the reported PBM binding z-score of the following sequence is 4 or greater: `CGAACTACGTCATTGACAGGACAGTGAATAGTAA`
Not met

Identify whether the reported PBM binding z-score of the following sequence is 4 or greater: `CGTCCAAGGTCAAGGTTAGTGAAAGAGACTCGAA`
Met

Identify whether the reported PBM binding z-score of the following sequence is 4 or greater: `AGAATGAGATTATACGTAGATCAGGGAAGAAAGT`
Not met

Identify whether the reported PBM binding z-score of the following sequence is 4 or greater: `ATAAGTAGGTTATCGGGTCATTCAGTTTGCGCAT`
Not met

* * *

# Test system: RARg:RXRa (NR concentration 270 nM, RXRa partner concentration 90 nM)
# measurementNotes: PBM binding z-score (relative to random genomic background probes); higher = stronger binding; sequences stand for … in GC…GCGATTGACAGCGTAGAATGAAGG
Rule: yes (1) for PBM binding z-score not less than 4, no (0) for anything less.

Identify whether the reported PBM binding z-score of the following sequence is 4 or greater: `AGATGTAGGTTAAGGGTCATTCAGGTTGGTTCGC`
yes (1)

Identify whether the reported PBM binding z-score of the following sequence is 4 or greater: `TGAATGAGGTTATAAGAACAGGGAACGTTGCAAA`
no (0)

Identify whether the reported PBM binding z-score of the following sequence is 4 or greater: `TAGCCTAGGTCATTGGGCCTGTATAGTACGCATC`
no (0)

Identify whether the reported PBM binding z-score of the following sequence is 4 or greater: `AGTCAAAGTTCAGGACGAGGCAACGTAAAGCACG`
no (0)

Identify whether the reported PBM binding z-score of the following sequence is 4 or greater: `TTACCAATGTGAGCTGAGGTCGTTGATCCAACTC`
no (0)

Identify whether the reported PBM binding z-score of the following sequence is 4 or greater: `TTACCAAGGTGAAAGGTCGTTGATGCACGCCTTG`
yes (1)

Identify whether the reported PBM binding z-score of the following sequence is 4 or greater: `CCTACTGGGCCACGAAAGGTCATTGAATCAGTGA`
yes (1)

Identify whether the reported PBM binding z-score of the following sequence is 4 or greater: `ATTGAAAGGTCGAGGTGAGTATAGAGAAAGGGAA`
yes (1)

Identify whether the reported PBM binding z-score of the following sequence is 4 or greater: `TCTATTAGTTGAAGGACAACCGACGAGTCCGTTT`
no (0)

Identify whether the reported PBM binding z-score of the following sequence is 4 or greater: `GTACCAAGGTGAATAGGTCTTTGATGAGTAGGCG`
no (0)

Identify whether the reported PBM binding z-score of the following sequence is 4 or greater: `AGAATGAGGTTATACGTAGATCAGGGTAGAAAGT`
no (0)

Identify whether the reported PBM binding z-score of the following sequence is 4 or greater: `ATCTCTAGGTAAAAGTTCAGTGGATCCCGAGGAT`
no (0)

Identify whether the reported PBM binding z-score of the following sequence is 4 or greater: `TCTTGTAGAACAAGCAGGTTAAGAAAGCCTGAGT`
no (0)

Identify whether the reported PBM binding z-score of the following sequence is 4 or greater: `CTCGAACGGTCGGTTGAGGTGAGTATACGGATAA`
no (0)

Identify whether the reported PBM binding z-score of the following sequence is 4 or greater: `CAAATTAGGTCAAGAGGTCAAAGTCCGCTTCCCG`
yes (1)

Identify whether the reported PBM binding z-score of the following sequence is 4 or greater: `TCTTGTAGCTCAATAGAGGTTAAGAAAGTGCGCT`
no (0)

Identify whether the reported PBM binding z-score of the following sequence is 4 or greater: `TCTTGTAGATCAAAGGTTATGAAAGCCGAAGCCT`
no (0)

Identify whether the reported PBM binding z-score of the following sequence is 4 or greater: `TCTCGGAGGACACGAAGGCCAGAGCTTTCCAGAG`
no (0)

Identify whether the reported PBM binding z-score of the following sequence is 4 or greater: `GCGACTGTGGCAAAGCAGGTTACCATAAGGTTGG`
no (0)

Identify whether the reported PBM binding z-score of the following sequence is 4 or greater: `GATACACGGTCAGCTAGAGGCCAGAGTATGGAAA`
no (0)

Identify whether the reported PBM binding z-score of the following sequence is 4 or greater: `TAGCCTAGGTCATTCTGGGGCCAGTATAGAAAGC`
yes (1)

Identify whether the reported PBM binding z-score of the following sequence is 4 or greater: `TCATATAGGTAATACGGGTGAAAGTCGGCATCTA`
no (0)

Identify whether the reported PBM binding z-score of the following sequence is 4 or greater: `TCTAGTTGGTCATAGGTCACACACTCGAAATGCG`
yes (1)

Identify whether the reported PBM binding z-score of the following sequence is 4 or greater: `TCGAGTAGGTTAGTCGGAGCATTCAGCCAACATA`
no (0)

Identify whether the reported PBM binding z-score of the following sequence is 4 or greater: `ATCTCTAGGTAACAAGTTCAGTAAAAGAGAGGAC`
no (0)

Identify whether the reported PBM binding z-score of the following sequence is 4 or greater: `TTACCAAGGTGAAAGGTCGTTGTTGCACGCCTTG`
no (0)
